target: c-kit kinase domain (Homo sapiens, UniProt P10721)
Sequence (P10721 552-948 limits assumed): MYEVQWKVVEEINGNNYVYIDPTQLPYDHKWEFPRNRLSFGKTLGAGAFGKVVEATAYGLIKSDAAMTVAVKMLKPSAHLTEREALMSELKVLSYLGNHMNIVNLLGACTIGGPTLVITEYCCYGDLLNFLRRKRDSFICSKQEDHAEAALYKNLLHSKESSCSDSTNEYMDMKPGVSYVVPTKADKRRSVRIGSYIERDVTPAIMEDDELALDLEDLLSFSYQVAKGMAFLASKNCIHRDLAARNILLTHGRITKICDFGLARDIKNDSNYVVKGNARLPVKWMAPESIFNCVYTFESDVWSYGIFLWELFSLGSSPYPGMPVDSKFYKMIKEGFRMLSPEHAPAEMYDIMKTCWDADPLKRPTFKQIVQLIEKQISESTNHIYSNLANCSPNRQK
pIC50: −log10 of the molar value.

>  <chemical-structure>
Clc1ccc(CNc2ccc(Cc3c[nH]c4ncccc34)cn2)cc1

>  <tested-target>
c-kit kinase domain (Homo sapiens, UniProt P10721)

>  <pIC50>
> 6.00

$$$$

Origin of values: patent US20060058339A1
